Reference source for all entries: ChEMBL document CHEMBL1142710

Catalogue of Ki readings, one per entry.
Target: Delta-type opioid receptor (Rattus norvegicus, UniProt P33533)
Sequence (P33533 whole entry): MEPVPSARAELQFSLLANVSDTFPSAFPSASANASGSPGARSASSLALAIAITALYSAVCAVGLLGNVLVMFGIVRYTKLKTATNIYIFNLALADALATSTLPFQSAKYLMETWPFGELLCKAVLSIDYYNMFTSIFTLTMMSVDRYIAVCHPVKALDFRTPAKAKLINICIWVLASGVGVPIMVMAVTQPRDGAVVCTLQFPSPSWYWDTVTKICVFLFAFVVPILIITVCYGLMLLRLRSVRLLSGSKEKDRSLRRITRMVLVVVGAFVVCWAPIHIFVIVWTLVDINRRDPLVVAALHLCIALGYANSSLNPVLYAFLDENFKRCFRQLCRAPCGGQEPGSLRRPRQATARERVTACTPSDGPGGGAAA
Assay: Binding affinity against Opioid receptor delta 1 from rat brain membranes using [3H]DADLE
measured.parameter: Ki (nM)

>>> df
                                    compound  unit  quantitative_result
 0  CC(C)CCN1CC[C@]23c4c5ccc(O)c4O[C@@H]2c2[nH]c4ccccc4c2C[C@@]3(O)[C@H]1C5    nM                  3.8
 1  CCN1CC[C@]23CC4Nc5ccccc5C4C[C@H]2C1Cc1ccc(OC)c(O)c13 (some centres not stated)    nM                  513
 2  Oc1ccc2c3c1O[C@H]1c4ncc(-c5ccc(Cl)cc5)cc4C[C@H]4C(C2)N(CC2CC2)CCC314 (some centres not stated)    nM                 2.57
 3  O=C(Oc1ccc2[nH]c3c(c2c1)C[C@@]1(O)[C@H]2Cc4ccc(O)c5c4[C@@]1(CCN2CC1CC1)[C@@H]3O5)c1ccccc1    nM                 4.37
 4  C=C(C)CN1CCC23c4c5ccc(O)c4O[C@H]2c2oc4ccccc4c2C[C@@]3(O)C1C5 (some centres not stated)    nM                 8.13
 5  COc1ccc2c(c1O)[C@]13CCN(CC4CC4)C(C2)[C@]1(O)CC1c2ccccc2NC1C3 (some centres not stated)    nM                 21.9
 6  Oc1ccc2c3c1O[C@@H]1c4[nH]c5cc(Oc6ccccc6)ccc5c4C[C@@]4(O)[C@@H](C2)N(CC2CC2)CC[C@]314    nM                 6.46
 7  O=C(Oc1cccc2c3c([nH]c12)[C@H]1Oc2c(O)ccc4c2[C@@]12CCN(CC1CC1)[C@H](C4)[C@]2(O)C3)c1ccccc1    nM                 3.09
 8  CN1CCC23c4c5ccc(O)c4O[C@H]2c2ncc(-c4ccc(Cl)cc4)cc2C[C@@]3(O)C1C5 (some centres not stated)    nM                 3.89
 9  CCN1CC[C@]23CC4Nc5ccccc5C4C[C@@]2(O)C1Cc1ccc(OC)c(O)c13 (some centres not stated)    nM                  692
10  Oc1ccc2c3c1O[C@@H]1c4[nH]c5c(Oc6ccccc6)cccc5c4C[C@@]4(O)[C@@H](C2)N(CC2CC2)CC[C@]314    nM                0.708
11  CN1CCC23c4c5ccc(O)c4O[C@H]2c2ncc(-c4ccc(Br)cc4)cc2C[C@H]3C1C5 (some centres not stated)    nM                 5.01
12  C=C(N)NCCC(=O)NC1CC2CC(c3cccc(O)c3)(C1)C(C)CN2CCCc1ccccc1 (configuration not stated)    nM                 56.2
13  C=C(C)CN1CCC23c4c5ccc(OC)c4O[C@H]2C(=O)/C(=C\c2ccccc2)C[C@@]3(O)C1C5 (some centres not stated)    nM                 3390
14  COc1cccc2c1C13CCN(CC4CC4)C(C2)[C@]1(OCCCc1ccccc1)CCC(=O)C3 (some centres not stated)    nM                   17
15  CC(C)N1CC[C@]23c4c5ccc(O)c4O[C@@H]2c2[nH]c4ccccc4c2C[C@@]3(O)[C@H]1C5    nM                 33.1
16  Oc1ccc2c3c1O[C@H]1c4ncc(-c5ccccc5)cc4C[C@@]4(O)C(C2)N(CC2CC2)CCC314 (some centres not stated)    nM                0.871
17  CCCCOc1cccc2c1[C@]13CCN(CC4CC4)[C@H](C2)[C@]1(OC)CCC(=O)C3    nM                  759
18  CCCCCCN1CC[C@]23c4c5ccc(O)c4O[C@@H]2c2[nH]c4ccccc4c2C[C@@]3(O)[C@H]1C5    nM                 25.7
19  COc1ccc2c(c1O)[C@]13CCN(C)C(C2)[C@@H]1CC1c2ccccc2NC1C3 (some centres not stated)    nM                 93.3
20  CC1CN(CCCc2ccccc2)C2CC(NC(=O)CCCN(C)C)CC1(c1cccc(O)c1)C2 (configuration not stated)    nM                 1450
21  Cc1ncc2c(n1)[C@@H]1Oc3c(O)ccc4c3C13CCN(CC1CC1)C(C4)[C@]3(O)C2 (some centres not stated)    nM                 22.9
22  C=C(C)CN1CCC23c4c5ccc(OC)c4O[C@H]2c2[nH]ncc2C[C@@]3(O)C1C5 (some centres not stated)    nM                 2400
23  Cc1nc(-c2ccccc2)c2c(n1)[C@@H]1Oc3c(O)ccc4c3C13CCN(CC1CC1)C(C4)[C@]3(O)C2 (some centres not stated)    nM                  324
24  COc1ccc2c3c1O[C@@H]1c4[nH]c5ccccc5c4C(C)[C@H]4[C@@H](C2)N(C)CC[C@]314 (some centres not stated)    nM                 26.9
25  CCCCC1c2c([nH]c3ccccc23)[C@H]2Oc3c(OC)ccc4c3[C@@]23CCN(C)[C@H](C4)[C@H]13 (some centres not stated)    nM                  372
26  CCCN1CC[C@]23c4c5ccc(O)c4O[C@@H]2c2[nH]c4ccccc4c2C[C@@]3(O)[C@H]1C5    nM                    2
27  Oc1ccc2c3c1O[C@@H]1c4[nH]c5ccc(-c6ccccc6)cc5c4C[C@@]4(O)[C@@H](C2)N(CC2CC2)CC[C@]314    nM                 15.8
28  Oc1ccc2c3c1O[C@H]1c4ncncc4C[C@@]4(O)C(C2)N(CC2CC2)CCC314 (some centres not stated)    nM                 3.47
29  O[C@@]12Cc3c([nH]c4ccccc34)[C@H]3Oc4c(-c5ccccc5)ccc5c4[C@@]31CCN(CC1CC1)[C@@H]2C5    nM                10500
30  CC(C)=CCN1CC[C@]23c4c5ccc(O)c4O[C@@H]2c2[nH]c4ccccc4c2C[C@@]3(O)[C@H]1C5    nM                 25.1
31  CCCCC1c2c([nH]c3ccccc23)[C@H]2Oc3c(O)ccc4c3[C@@]23CCN(C)[C@H](C4)[C@H]13 (some centres not stated)    nM                 21.9
